- assayed.target: CYP3A4 (Homo sapiens, UniProt P08684)
- Construct: Pooled human liver microsomes (HLMs) were purchased from BD Biosciences; tissue BD Biosciences; host or cells: pooled human liver microsomes
- Sequence (P08684 whole entry): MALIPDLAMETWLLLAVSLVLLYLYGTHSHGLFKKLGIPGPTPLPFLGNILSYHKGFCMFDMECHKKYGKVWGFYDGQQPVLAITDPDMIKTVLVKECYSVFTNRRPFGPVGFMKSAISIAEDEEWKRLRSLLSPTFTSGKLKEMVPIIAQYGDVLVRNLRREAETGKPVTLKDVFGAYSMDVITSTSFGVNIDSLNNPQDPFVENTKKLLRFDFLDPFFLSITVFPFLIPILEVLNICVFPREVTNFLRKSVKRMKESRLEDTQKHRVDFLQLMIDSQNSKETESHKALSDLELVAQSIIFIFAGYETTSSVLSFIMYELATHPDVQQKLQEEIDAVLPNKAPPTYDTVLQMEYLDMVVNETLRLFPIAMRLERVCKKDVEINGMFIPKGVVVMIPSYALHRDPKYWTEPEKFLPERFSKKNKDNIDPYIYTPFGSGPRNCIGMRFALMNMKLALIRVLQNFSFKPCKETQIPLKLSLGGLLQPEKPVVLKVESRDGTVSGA
- test.method.notes: Inhibition of CYP3A4 (testosterone 6β-hydroxylation) in human liver microsomes
- Assay type: in vitro ADME
- condition.parameters: HLMs, 0-100 μM pogostone, testosterone substrate
pIC50: −log10 of the molar value.
attribute.measured: pIC50

| molecule | assayed.target | assay.value |
| --- | --- | --- |
| Cc1cc(O)c(C(=O)CCC(C)C)c(=O)o1 [pogostone, Pogostone] | CYP3A4 (Homo sapiens, UniProt P08684) | 4.94 |

---

- assayed.target: CYP2E1 (Homo sapiens, UniProt P05181)
- Construct: Pooled human liver microsomes (HLMs) were purchased from BD Biosciences; tissue BD Biosciences; host or cells: pooled human liver microsomes
- Sequence (P05181 whole entry): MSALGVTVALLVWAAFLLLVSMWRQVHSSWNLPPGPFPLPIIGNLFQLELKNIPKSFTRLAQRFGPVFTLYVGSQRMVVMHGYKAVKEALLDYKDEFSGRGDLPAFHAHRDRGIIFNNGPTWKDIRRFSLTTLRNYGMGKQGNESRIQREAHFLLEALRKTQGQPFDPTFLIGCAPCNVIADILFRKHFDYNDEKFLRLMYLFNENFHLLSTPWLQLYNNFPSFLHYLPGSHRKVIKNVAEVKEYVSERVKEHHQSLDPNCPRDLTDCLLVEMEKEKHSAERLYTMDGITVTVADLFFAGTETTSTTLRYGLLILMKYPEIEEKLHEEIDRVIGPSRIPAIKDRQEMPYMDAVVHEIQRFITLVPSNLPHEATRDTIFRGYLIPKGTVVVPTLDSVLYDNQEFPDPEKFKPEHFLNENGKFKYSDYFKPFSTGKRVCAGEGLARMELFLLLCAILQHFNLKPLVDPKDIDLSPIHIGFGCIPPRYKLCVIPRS
- test.method.notes: Inhibition of CYP2E1 (chlorzoxazone 6-hydroxylation) in human liver microsomes
- Type: in vitro ADME
- condition.parameters: HLMs, Lineweaver-Burk, 25-250 μM chlorzoxazone
pKi: −log10 of the molar value.
attribute.measured: pKi

| structure.smiles.string | attribute.measured | assay.value |
| --- | --- | --- |
| Cc1cc(O)c(C(=O)CCC(C)C)c(=O)o1 | pKi | 5.12 |

---

- assayed.target: CYP3A4 (Homo sapiens, UniProt P08684)
- Construct: Pooled human liver microsomes (HLMs) were purchased from BD Biosciences; tissue BD Biosciences; host or cells: pooled human liver microsomes
- test.method.notes: Inhibition of CYP3A4 (testosterone 6β-hydroxylation) in human liver microsomes
- Format: in vitro ADME
- condition.parameters: HLMs, Lineweaver-Burk, 20-100 μM testosterone
attribute.measured: Ki (µM)

| compound | reading.unit | assay.value |
| --- | --- | --- |
| Cc1cc(O)c(C(=O)CCC(C)C)c(=O)o1 [pogostone, Pogostone] | µM | 5.69 |

---

- assayed.target: CYP2C9 (Homo sapiens)
- Construct: Pooled human liver microsomes (HLMs) were purchased from BD Biosciences; tissue BD Biosciences; host or cells: pooled human liver microsomes
- Sequence (P11712 whole entry): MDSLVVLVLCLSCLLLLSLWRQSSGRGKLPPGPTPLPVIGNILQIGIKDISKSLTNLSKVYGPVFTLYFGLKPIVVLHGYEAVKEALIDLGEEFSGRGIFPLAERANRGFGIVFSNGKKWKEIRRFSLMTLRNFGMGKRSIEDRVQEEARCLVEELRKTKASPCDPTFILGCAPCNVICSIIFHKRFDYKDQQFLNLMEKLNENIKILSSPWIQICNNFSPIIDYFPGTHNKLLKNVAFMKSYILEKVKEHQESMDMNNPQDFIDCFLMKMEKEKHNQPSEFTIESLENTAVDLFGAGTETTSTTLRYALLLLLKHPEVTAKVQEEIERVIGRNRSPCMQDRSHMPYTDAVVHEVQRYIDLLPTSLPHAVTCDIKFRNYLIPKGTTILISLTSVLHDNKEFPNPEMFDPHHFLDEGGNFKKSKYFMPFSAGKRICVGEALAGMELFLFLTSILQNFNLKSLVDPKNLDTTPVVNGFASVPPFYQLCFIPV
- test.method.notes: Inhibition of CYP2C9 (diclofenac 4′-hydroxylation) in human liver microsomes
- Format: in vitro ADME
- condition.parameters: HLMs, Lineweaver-Burk, diclofenac
pKi: −log10 of the molar value.

| structure.smiles.string | pKi |
| --- | --- |
| Cc1cc(O)c(C(=O)CCC(C)C)c(=O)o1 | 5.19 |

---

- assayed.target: CYP2E1 (Homo sapiens)
- Construct: Pooled human liver microsomes (HLMs) were purchased from BD Biosciences; tissue BD Biosciences; host or cells: pooled human liver microsomes
- test.method.notes: Inhibition of CYP2E1 (chlorzoxazone 6-hydroxylation) in human liver microsomes
- Type: in vitro ADME
- condition.parameters: HLMs, 0-100 μM pogostone, chlorzoxazone substrate
- Source text: The effect of pogostone on the activity of CYP450s was investigated with probe reactions (summarized in Table 1) in HLMs in accordance with previous studies (Zhang et al. [2007], [2020]). […]
pIC50: −log10 of the molar value.
attribute.measured: pIC50

| structure.smiles.string | assayed.target | attribute.measured | assay.value |
| --- | --- | --- | --- |
| Cc1cc(O)c(C(=O)CCC(C)C)c(=O)o1 | CYP2E1 (Homo sapiens) | pIC50 | 4.83 |
